# TEST TARGET: T1, EsCas13d, nuclease-dead (Eubacterium siraeum, UniProt B0MS50, R295A;H300A;R849A;H854A)
# T1 sequence: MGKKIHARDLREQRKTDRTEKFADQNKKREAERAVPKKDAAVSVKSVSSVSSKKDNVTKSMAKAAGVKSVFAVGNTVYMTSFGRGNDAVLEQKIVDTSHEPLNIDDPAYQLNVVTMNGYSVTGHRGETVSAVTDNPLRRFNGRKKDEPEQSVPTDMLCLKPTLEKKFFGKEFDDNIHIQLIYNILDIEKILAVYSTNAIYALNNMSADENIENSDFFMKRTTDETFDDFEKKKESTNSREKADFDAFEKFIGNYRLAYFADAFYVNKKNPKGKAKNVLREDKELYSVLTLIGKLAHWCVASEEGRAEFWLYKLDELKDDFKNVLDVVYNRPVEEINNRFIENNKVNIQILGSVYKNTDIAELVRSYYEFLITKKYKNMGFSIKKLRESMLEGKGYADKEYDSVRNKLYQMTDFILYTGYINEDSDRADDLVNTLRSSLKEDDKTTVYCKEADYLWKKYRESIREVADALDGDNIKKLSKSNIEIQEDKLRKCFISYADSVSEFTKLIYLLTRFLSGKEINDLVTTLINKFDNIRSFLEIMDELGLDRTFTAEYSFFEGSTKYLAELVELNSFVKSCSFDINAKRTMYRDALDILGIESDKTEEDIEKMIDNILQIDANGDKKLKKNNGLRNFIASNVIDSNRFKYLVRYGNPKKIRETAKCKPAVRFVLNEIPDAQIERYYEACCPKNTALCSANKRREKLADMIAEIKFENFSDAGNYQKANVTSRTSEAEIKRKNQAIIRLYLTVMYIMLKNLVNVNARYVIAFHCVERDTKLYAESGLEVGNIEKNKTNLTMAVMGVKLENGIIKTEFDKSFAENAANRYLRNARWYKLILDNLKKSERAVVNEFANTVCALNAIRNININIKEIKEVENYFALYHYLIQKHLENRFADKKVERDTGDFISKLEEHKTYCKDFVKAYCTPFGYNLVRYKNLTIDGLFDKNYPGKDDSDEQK
# ASSAY DETAILS: crRNA (strand 1, pre-loaded); Mg2+; 40 mM Tris-HCl pH 7.5, 150 mM NaCl, 6 mM MgCl2, 1 mM DTT, 0.1% Tween-20, 0.2 mg/ml BSA; 25 C; 10 min per concentration, then washed
# RUN PARAMETERS: tags: His6-TwinStrep-SUMO cleaved; N-terminal SNAP kept (SNAP-Surface 488); label: 3' end held by stalled T7 RNA polymerase
Reported Kd by item:
MEASUREMENT LABEL: Kd (nM)

binder="target 1 C7G,U11C (mixed) RNA 1: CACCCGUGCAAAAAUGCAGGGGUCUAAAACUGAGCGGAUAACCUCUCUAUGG RNA 2: GGGAAUGGAUCCACAUCUACGAAUUCGUACCAUAGAGAGGCUAUGCGCUCACCGAGAUCGGAAGAGCACACGU" measurement_label=Kd unit_of_measurement=nM recorded_value=14.6
binder="target 1 insU 3' of 15,insA 3' of 4 (mixed) RNA 1: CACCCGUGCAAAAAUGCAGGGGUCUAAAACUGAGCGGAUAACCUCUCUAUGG RNA 2: GGGAAUGGAUCCACAUCUACGAAUUCGUACCAUAGAGUAGGUUAUCCGCAUCACCGAGAUCGGAAGAGCACACGU" measurement_label=Kd unit_of_measurement=nM recorded_value=9.4
binder="target 1 U8C,U10G (mixed) RNA 1: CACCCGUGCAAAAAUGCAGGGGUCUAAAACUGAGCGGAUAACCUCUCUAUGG RNA 2: GGGAAUGGAUCCACAUCUACGAAUUCGUACCAUAGAGAGGUGACCCGCUCACCGAGAUCGGAAGAGCACACGU" measurement_label=Kd unit_of_measurement=nM recorded_value=13.5
binder="target 3 U2G,C6U (mixed) RNA 1: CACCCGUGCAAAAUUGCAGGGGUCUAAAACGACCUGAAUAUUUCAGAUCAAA RNA 2: GGGAAUGGAUCCACAUCUACGAAUUCGUUUUUGAUCUGAAAUAUUUAGGGCUGCAGAUCGGAAGAGCACACGU" measurement_label=Kd unit_of_measurement=nM recorded_value=2.4
